target-under-test: Cholinesterase (Equus caballus, UniProt P81908)
Sequence (P81908 whole entry): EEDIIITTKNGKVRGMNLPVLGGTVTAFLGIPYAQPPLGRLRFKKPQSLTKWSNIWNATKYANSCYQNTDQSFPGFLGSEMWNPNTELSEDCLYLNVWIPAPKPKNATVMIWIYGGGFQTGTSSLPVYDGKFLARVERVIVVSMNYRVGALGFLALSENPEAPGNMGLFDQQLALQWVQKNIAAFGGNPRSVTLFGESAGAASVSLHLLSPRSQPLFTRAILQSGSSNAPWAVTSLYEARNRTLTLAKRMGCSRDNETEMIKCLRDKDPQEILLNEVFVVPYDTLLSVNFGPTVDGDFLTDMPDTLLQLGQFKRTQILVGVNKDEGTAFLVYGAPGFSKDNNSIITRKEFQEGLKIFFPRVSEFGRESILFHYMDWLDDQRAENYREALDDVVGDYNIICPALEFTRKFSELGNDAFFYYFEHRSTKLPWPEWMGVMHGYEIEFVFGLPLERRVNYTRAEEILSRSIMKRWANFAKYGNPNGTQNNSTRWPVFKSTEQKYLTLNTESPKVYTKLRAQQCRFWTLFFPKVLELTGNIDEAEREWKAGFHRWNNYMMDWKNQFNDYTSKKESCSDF
assay-overview: Inhibition of equine serum BChE
Type: cell-free
recorded-conditions: read-out: IC50
pIC50: −log10 of the molar value.
Measured pIC50, listed per entry.

| smiles | target-under-test | pIC50 |
| --- | --- | --- |
| COc1cc(/C=C/C(=O)Nc2ccccc2N)ccc1C(=O)NCC1CCN(Cc2ccccc2)CC1 | Cholinesterase (Equus caballus, UniProt P81908) | 5.18 |
| Nc1ccccc1NC(=O)c1cccc(S(=O)(=O)NCC2CCN(Cc3ccccc3)CC2)c1 | Cholinesterase (Equus caballus, UniProt P81908) | 5.28 |
| O=C(CCCCCCC(=O)NCC1CCN(Cc2ccccc2)CC1)NO | Cholinesterase (Equus caballus, UniProt P81908) | 5.79 |
| Nc1ccccc1NC(=O)CCCCCCCC(=O)NCC1CCN(Cc2ccccc2)CC1 | Cholinesterase (Equus caballus, UniProt P81908) | 4.86 |
| COc1cc(/C=C/C(=O)NO)ccc1C(=O)NCC1CCN(Cc2ccccc2)CC1 | Cholinesterase (Equus caballus, UniProt P81908) | 4.60 |
